- Tested on: Drosophila S2 cl14 SmoIP sensor cells
- Experiment summary: normalized SmoIP GFP fluorescence (untreated unstimulated = 0%, untreated Hh-stimulated = 100%); higher = more Smo activation sensor fluorescence
- Study conditions: stimulation: Hh conditioned medium (+Hh); compound concentration: 2 uM; 24 h
Where a name gives a salt, the structure may show the parent alone.
Measurement label: normalized SmoIP GFP fluorescence (%)
Give bare numbers, in %.

CC(C)n1c(/C=C/[C@@H](O)C[C@@H](O)CC(=O)O)c(-c2ccc(F)cc2)c2ccccc21 [Fluvastatin-Sodium(Lescol]: 78.2
Cc1ccc(Nc2nccc(N(C)c3ccc4c(C)n(C)nc4c3)n2)cc1S(N)(=O)=O [Pazopanib-Hydrochloride]: 117
NC(=O)c1ccc(I)c([N+](=O)[O-])c1: 115

Please report normalized SmoIP GFP fluorescence for every entry that follows.
1. CC/C(=C(\c1ccccc1)c1ccc(OCCN(C)C)cc1)c1ccccc1 [Tamoxifen-Citrate(Nolvadex)]
2. COCCc1ccc(OCC(O)CNC(C)C)cc1 (centres undefined) [metoprolol-tartrate]
3. Cn1cc(CNCC2CCN(c3ncc(C(=O)NO)cn3)CC2)c2ccccc21
4. COCCOC(=O)C1=C(C)NC(C)=C(C(=O)OC/C=C/c2ccccc2)C1c1cccc([N+](=O)[O-])c1 (centres undefined) [Cilnidipine]
5. O=C(N/N=C/c1ccc(O)c(O)c1)c1cc2ccccc2cc1O [dynasore]
6. Oc1ccc([C@H]2COc3cc(O)ccc3C2)cc1 [equol]

**A:**
1. 112
2. 138
3. 268
4. 112
5. 129
6. 107

Please report normalized SmoIP GFP fluorescence for every entry that follows.
1. Cc1ccc(-c2cc(C(F)(F)F)nn2-c2ccc(S(N)(=O)=O)cc2)cc1 [Celecoxib]
2. Cc1ccc2nc(NCCN)c3ncc(C)n3c2c1
3. CCCCNC(=O)NS(=O)(=O)c1ccc(C)cc1 [tolbutamide]
4. CNC(CC(=O)O)C(=O)O (stereo not drawn) [nmda-n-methyl-d-aspartic-acid]
5. Fc1ccc(C(c2ccc(F)cc2)N2CCN(C/C=C/c3ccccc3)CC2)cc1 [flunarizine-dihydrochloride]

**A:**
111
137
108
101
134

---

- System: Drosophila S2 cl14 SmoIP sensor cells
- Experiment summary: normalized SmoIP GFP fluorescence (untreated unstimulated = 0%, untreated Hh-stimulated = 100%); higher = more Smo activation sensor fluorescence
- Study conditions: stimulation: mock conditioned medium (-Hh); compound concentration: 2 uM; 24 h
Measurement label: normalized SmoIP GFP fluorescence (%)
One number for each entry, in %.

Solved entries (count: 3):
Cc1cnc(Nc2ccc(OCCN3CCCC3)cc2)nc1Nc1cccc(S(=O)(=O)NC(C)(C)C)c1: 8.54
CNCc1cc(-c2ccccc2F)n(S(=O)(=O)c2cccnc2)c1: -15.1
CC(=O)Nc1nc2c(Oc3cc(-c4ccc(C(F)(F)F)cc4)ncn3)cccc2s1: -4.7

Noted for Cc1cc(N2CCOCC2)ccc1Nc1nc(NC2CCCCC2)c2[nH]cnc2n1 : its normalized SmoIP GFP fluorescence reads -2.64

---

- Tested on: Drosophila S2 cl14 SmoIP sensor cells
- Experiment summary: normalized SmoIP GFP fluorescence (untreated unstimulated = 0%, untreated Hh-stimulated = 100%); higher = more Smo activation sensor fluorescence
- Study conditions: stimulation: mock conditioned medium (-Hh); compound concentration: 2 uM; 24 h
Structures can show the parent of a compound that is named as a salt.
Measurement label: normalized SmoIP GFP fluorescence (%)
One number for each entry, in %.

Solved entries (count: 5):
c1cc(-c2cnn3cc(-c4ccc(N5CCNCC5)cc4)cnc23)c2cccnc2c1: 2.12
CN[C@@H](C)C(=O)N[C@H](C(=O)N1CCC[C@H]1C(=O)Nc1snnc1-c1ccccc1)C1CCCCC1: 4.68
Nc1cc(C(F)(F)F)c(-c2cc(N3CCOCC3)nc(N3CCOCC3)n2)cn1: -8.9
O=c1c(-c2ccc(O)cc2)coc2cc(O)cc(O)c12: -0.804
CNCCCC12CCC(c3ccccc31)c1ccccc12 [Maprotiline-hydrochloride]: -0.116

Please report normalized SmoIP GFP fluorescence for every entry that follows.
1. CC(=O)O[C@]1(C(C)=O)CC[C@H]2[C@@H]3C[C@H](C)C4=CC(=O)CC[C@]4(C)[C@H]3CC[C@@]21C [Medroxyprogesterone-acetate]
2. COc1ccc(COc2cc3oc(=O)c4cc(C(C)O)ccc4c3cc2OC)cc1 (stereo not drawn)
3. Cc1cccc(Nc2cc(Cl)nc(SCC(=O)O)n2)c1C
4. CN1C2CCC1CC(OC(=O)C(O)c1ccccc1)C2 (stereo not drawn) [homatropine-bromide]
5. NC(=O)c1ccc(-c2nc(-c3ccccn3)c(-c3ccc4c(c3)OCO4)[nH]2)cc1

**A:**
-1.83
-15.8
-14.3
-4.81
-2.96

Please report normalized SmoIP GFP fluorescence for every entry that follows.
1. C[C@H](NC(=O)[C@@H](O)c1cc(F)cc(F)c1)C(=O)N[C@@H]1C(=O)N(C)c2ccccc2-c2ccccc21
2. Cc1cccc(Nc2ccccc2C(=O)O)c1C
3. Cc1cc2c(F)c(Oc3ncnn4cc(OC[C@@H](C)O)c(C)c34)ccc2[nH]1

**A:**
[9.98, -1.23, 0.489]

Please report normalized SmoIP GFP fluorescence for every entry that follows.
1. Nc1nc(N)c(N=O)c(OCC2CCCCC2)n1
2. COc1ccc(S(=O)(=O)N(C(C)=O)c2ccccc2/C=C/c2cc[n+]([O-])cc2)cc1
3. Cc1cc(C)c(CNC(=O)c2cc(-c3ccc(CN4CCOCC4)cc3)cc3c2cnn3C2CCCC2)c(=O)[nH]1
4. Cc1cc(-c2ncc(CC(=O)Nc3ccc(-c4cnccn4)cn3)cc2C)ccn1
5. CCCNS(=O)(=O)Nc1ncnc(OCCOc2ncc(Br)cn2)c1-c1ccc(Br)cc1
6. COc1cc2c(Oc3ccc4[nH]c(C)cc4c3F)ncnc2cc1OCCCN1CCCC1

**A:**
[12.5, 1.03, -0.264, -1.23, 15.2, 52.4]

---

- Test system: Drosophila S2 cl14 SmoIP sensor cells;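 further: flow cytometry read-out as median GFP intensity of gated cells, compounds added 30 min before Hh-conditioned or mock medium, mock-treated cells serving as unstimulated baseline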
- Experiment summary: normalized SmoIP GFP fluorescence (untreated unstimulated = 0%, untreated Hh-stimulated = 100%); higher = more Smo activation sensor fluorescence
- Study conditions: stimulation: Hh conditioned medium (+Hh); compound concentration: 2 uM; 24 h
Structures can show the parent of a compound that is named as a salt.
For each of the compounds below, state its normalized SmoIP GFP fluorescence.
Numbers only, in %.

Solved entries (count: 10):
O=C(c1ccc(F)cc1)N1CCC[C@H](c2nc(-c3ccc(F)cc3)no2)C1: 156
N#Cc1c(O)c2c(-c3ccc(-c4ccccc4O)cc3)csc2[nH]c1=O: 139
Cc1c(Cn2c(C)nc3c(C(=O)O)cc(N4CCOCC4)cc32)cccc1C(F)(F)F: 108
CC(C)(C)c1ccc(C(=O)CCCN2CCC(OC(c3ccccc3)c3ccccc3)CC2)cc1 [ebastine]: 135
CN(C)CC[C@H](CSc1ccccc1)Nc1ccc(S(=O)(=O)NC(=O)c2ccc(N3CCN(Cc4ccccc4-c4ccc(Cl)cc4)CC3)cc2)cc1[N+](=O)[O-]: 109
Cc1cc(-c2ncc(CC(=O)Nc3ccc(-c4cnccn4)cn3)cc2C)ccn1: 130
Cn1c(=O)n(-c2ccc(C(C)(C)C#N)cc2)c2c3cc(-c4cnc5ccccc5c4)ccc3ncc21: 113
N#Cc1cc(CN2CCC(Nc3ncnc4sc(Cl)cc34)CC2)ccc1F: 129
CNC(=O)c1cc(Oc2ccc(NC(=O)Nc3ccc(Cl)c(C(F)(F)F)c3)cc2)ccn1 [Sorafenib-Tosylate]: 112
CC(C)CCN1c2nc(Nc3cc(F)c(O)c(F)c3)ncc2N(C)C(=O)C1C (configuration not stated): 144

Please report normalized SmoIP GFP fluorescence for every entry that follows.
1. NC1(c2ccc(-c3nc4ccn5c(=O)[nH]nc5c4cc3-c3ccccc3)cc2)CCC1
2. O=C(NNc1ccccc1)c1ccncc1
3. Cc1onc(-c2ccccc2)c1-c1ccc(S(N)(=O)=O)cc1 [valdecoxib]
4. CCN(CC)CC#CCOC(=O)C(O)(c1ccccc1)C1CCCCC1 (configuration not stated) [oxybutynin-chloride]
5. O=C(Nc1ccccc1)Nc1ccc(-c2ccc(C(=O)[C@@H]3CCC[C@H]3C(=O)O)cc2)cc1
6. CN(C)CCC(c1ccc(Cl)cc1)c1ccccn1 (configuration not stated) [Chlorpheniramine-maleate]
7. Cc1[nH]nc2ccc(-c3cncc(OC[C@@H](N)Cc4ccccc4)c3)cc12
8. COC(=O)[C@H](c1ccccc1Cl)N1CCc2sccc2C1 [Clopidogrel-bisulfate]

**A:**
102
105
104
108
128
106
134
113

Please report normalized SmoIP GFP fluorescence for every entry that follows.
1. CN(C)CCC(c1ccc(Br)cc1)c1ccccn1 (configuration not stated) [brompheniramine]
2. CCCCc1oc2ccccc2c1C(=O)c1cc(I)c(OCCN(CC)CC)c(I)c1 [amiodarone-hcl]

**A:**
138
112

Please report normalized SmoIP GFP fluorescence for every entry that follows.
1. COc1cc(OC)c(/C=C/S(=O)(=O)Cc2ccc(OC)c(NCC(=O)O)c2)c(OC)c1
2. Cn1c(=O)cc(N2CCC[C@@H](N)C2)n(Cc2cc(F)ccc2C#N)c1=O [trelagliptin]

**A:**
1. 79.7
2. 104
